GI50 by entry:
System: SK-OV-3 ovarian
Assay: NCI tumour cell line growth inhibition, 48 h

Inquiry: Fill: GI50 (SK-OV-3 ovarian) for this compound Cc1nc(NC(=S)Nc2ccc(F)cc2)sc1C(=O)NNC(=S)Nc1ccc(F)cc1
Reply text: 15.7 µM

Inquiry: Fill: GI50 (SK-OV-3 ovarian) for this compound COc1ccc(C(=O)/C=C/c2cc(C(=O)c3cc(OC)c(OC)c(OC)c3)ccc2OC)cc1
Reply text: > 100 µM

Inquiry: Fill: GI50 (SK-OV-3 ovarian) for this compound Cc1nc(Nc2ccc(F)c(Cl)c2)sc1C(=O)O
Reply text: 1.83 µM

---

Test system: KM12 colon
Assay: NCI tumour cell line growth inhibition, 48 h
PARAMETER: TGI

These solved cases illustrate the format of a correct answer.
- COMPOUND: "N#CC(C#N)=CN1CCN(C(=O)c2ccccc2)C1=S"
  TGI: "86.7 µM"
- COMPOUND: "O=C(c1ccc(Cl)cc1)N(C(=S)N1CCN(c2ccccc2)CC1)c1ccccc1"
  TGI: "> 100 µM"
- COMPOUND: "CCCCCC(/C=N/NC(N)=S)C(O)(C(F)(F)F)C(F)(F)F (stereo unspecified)"
  TGI: "> 10 µM"
- COMPOUND: "CC(=S)NNC(=O)c1ccncc1"
  TGI: "> 100 µM"
- COMPOUND: "Cc1ccnc2c1c(=O)c1ccccc1n2C"
  TGI: "> 100 µM"

Inquiry: Report TGI, nothing else, for this compound: CN(C)c1ccc(/C=C2\N=C(c3ccc(N)cc3)OC2=O)cc1
Reply text: > 100 µM

Inquiry: Report TGI, nothing else, for this compound: CCOC(=O)CC[C@@H](NC(=O)c1ccc(NCc2ccc3nc(OC)c(OC)nc3c2)cc1)C(=O)OCC
Reply text: > 100 µM

Inquiry: Report TGI, nothing else, for this compound: Nc1ccccc1Sc1ccc(Cl)cc1
Reply text: > 100 µM

Inquiry: Report TGI, nothing else, for this compound: CC1(C)OC2CN(C(=O)OCc3ccccc3)C(CO)C2O1 (stereo unspecified)
Reply text: > 100 µM

Inquiry: Report TGI, nothing else, for this compound: C=C(CN1CCN(c2ccccc2F)CC1)c1ccc(C(=O)Nc2ccccc2N)cc1
Reply text: 11.4 µM

Inquiry: Report TGI, nothing else, for this compound: CC(C)(C)C(=O)C(c1ccc(-c2cscn2)cc1)c1ccc(-c2cscn2)cc1
Reply text: > 100 µM
